target: T1, huCD3e-mFc (human, UniProt P07766 23-126); assay: Pool 3 screen
T1 construct: not shown: mFc, not described
T1 sequence (P07766 23-126): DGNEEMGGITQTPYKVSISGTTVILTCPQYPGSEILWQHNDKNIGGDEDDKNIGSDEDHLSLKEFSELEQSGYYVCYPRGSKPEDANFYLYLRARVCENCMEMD
assay_endpoint: Kd (nM)
Give the value in nM but do not write nM after it.

stdin: # query: Kd of entry AC3818 (CD3.314) (scFv, V domains shown, Pool 3 format (remarks)) VH: EVQLVESGGGIVQPGGSLRLSCAASGFTFSTYAMNWVRQAPGKGLEWVGRIRTKRNDYATYYADSVKGRFTISRDDSKNTLYLQMNSLKTEDTAVYYCVRHENFGNSYVSWFAHWGQGTLVTVSS VL: ELVVTQEPSLTVSPGGTVTLTCRSSNGAVTSSNYANWVQQKPGQAPRGLIGGTNKRAPGTPARFSGSLEGGKAALTLSGVQPEDEAVYYCALWYPNLWVFGGGTKLTVL
stdout: 4.02

stdin: What does the data say about its Kd? Entry: AC3825 (CD3.321) (scFv, V domains shown, Pool 3 format (remarks)) VH: EVQLVESGGGIVQPGGSLRLSCAASGFTFNTYAMNWVRQAPGKGLEWVGRIRTKTNNYATYYADSVKGRFTISRDDSKNTVYLQMNSLKTEDTAVYYCVRHENFGNSYVSWFAHWGQGTLVTVSS VL: ELVVTQEPSLTVSPGGTVTLTCRSSNGAVTSSNYANWVQQKPGQAPRGLIGGTNKRAPGTPARFSGSGLGGKAALTLSGVQPEDEAVYYCALWYPNLWVFGGGTKLTVL
stdout: 10

stdin: # input binder: AC3768 (CD3.23 control) (scFv, V domains shown, Pool 3 format (remarks)) VH: EVQLLESGGGIVQPGGSLKLSCAASGFTFNTYAMNWVRQAPGKGLEWVARIRSKYNNYATYYADSVKDRFTISRDDSKNTVYLQMNNLKTEDTAVYYCVRHENFGNSYVSWFAHWGQGTLVTVSS VL: ELVVTQEPSLTVSPGGTVTLTCRSSNGAVTSSNYANWVQQKPGQAPRGLIGGTNKRAPGTPARFSGSLLGGKAALTLSGVQPEDEAVYYCALWYPNLWVFGGGTKLTVL ; wanted: its Kd
stdout: 4.67
